Data provenance is patent US6214859A.

pIC50 for assorted compounds
Molecular target: D1 receptor (Rattus norvegicus, UniProt P18901)
Construct: The precipitate was used as the solution of receptor
Sequence (P18901 whole entry): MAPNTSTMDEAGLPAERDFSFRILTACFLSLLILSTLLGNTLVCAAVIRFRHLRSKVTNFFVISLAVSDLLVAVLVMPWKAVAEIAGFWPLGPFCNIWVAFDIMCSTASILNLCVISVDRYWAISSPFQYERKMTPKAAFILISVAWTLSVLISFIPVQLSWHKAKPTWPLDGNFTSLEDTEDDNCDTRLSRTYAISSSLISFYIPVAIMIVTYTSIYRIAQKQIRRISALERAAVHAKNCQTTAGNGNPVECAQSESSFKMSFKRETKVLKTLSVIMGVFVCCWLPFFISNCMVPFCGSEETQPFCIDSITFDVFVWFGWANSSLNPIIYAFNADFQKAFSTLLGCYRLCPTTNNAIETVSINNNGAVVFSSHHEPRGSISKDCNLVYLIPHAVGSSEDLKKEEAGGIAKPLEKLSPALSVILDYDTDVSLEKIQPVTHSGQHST
Assay: Affinity to D1 receptor
pIC50: −log10 of the molar value.
measured-endpoint: pIC50

{"columns": ["compound", "assay-result"],
 "data": [
  ["CC(C)C[C@H]1C(=O)N2CCC[C@H]2[C@]2(O)O[C@](NC(=O)[C@@H]3C=C4c5cccc6[nH]c(Br)c(c56)C[C@H]4N(C)C3)(C(C)C)C(=O)N12 [Bromocriptine, reference compound]", 5.00],
  ["CCCNC(CCC)Cc1cccc2[nH]ccc12.Cl (stereo not shown) [Compound No. 21, Hydrochloride]", "< 5.00"],
  ["CCCNC(CCC)Cc1c[nH]c2ccccc12.Cl (stereo not shown) [Compound No. 20, Hydrochloride]", "< 5.00"],
  ["CCCNC(CCC)Cc1cc2ccccc2o1.Cl (stereo not shown) [Compound No. 25, Hydrochloride]", "< 5.00"]
]}

* * *

Test system: serotonin release, raphe
Test: Release of biogenic amines from brain tissue: serotonin, raphe
Type: in vivo, Wistar rats
Conditions: 0.01 mg/kg s.c.
Release of serotonin, raphe for assorted compounds

{"columns": ["compound", "measurement-target", "Release of serotonin, raphe"],
 "data": [
  ["CCCNC(CCC)Cc1ccc2cc[nH]c2c1.Cl (centres unmarked) [compound 22]", "serotonin release, raphe", "0.322 ± 0.01 nmol/g tissue, for 20 min"],
  ["CCCNC(CCC)Cc1cc2ccccc2o1.Cl (centres unmarked) [Compound No. 25]", "serotonin release, raphe", "0.457 ± 0.04 nmol/g tissue, for 20 min"],
  ["CCCNC(CCC)Cc1cccc2[nH]ccc12.Cl (centres unmarked) [Compound No. 21]", "serotonin release, raphe", "0.354 ± 0.00 nmol/g tissue, for 20 min"],
  ["CCCNC(CCC)Cc1csc2ccccc12.Cl (centres unmarked) [compound 39]", "serotonin release, raphe", "0.256 ± 0.01 nmol/g tissue, for 20 min"],
  ["CCCNC(CCC)Cc1cc2ccccc2s1.Cl (centres unmarked) [compound 38]", "serotonin release, raphe", "0.375 ± 0.02 nmol/g tissue, for 20 min"]
]}

* * *

Biological target: 5-HT1 receptor
Assay: Affinity to 5-HT1 receptor
Settings: read-out: Affinity to 5-HT1 receptor (MIC50; mole concentration for 50% inhibition of binding); 2 nM ^3H-5-HT
pIC50: −log10 of the molar value.

{"columns": ["compound", "measurement-target", "pIC50"],
 "data": [
  ["CCCNC(CCC)Cc1cccc2[nH]ccc12.Cl (stereo not drawn) [Compound No. 21, Hydrochloride]", "5-HT1 receptor", "< 5.00"],
  ["CCCNC(CCC)Cc1cc2ccccc2o1.Cl (stereo not drawn) [Compound No. 25, Hydrochloride]", "5-HT1 receptor", "< 5.00"],
  ["C#CCN(C)[C@H](C)Cc1ccccc1 [Selegiline, reference compound]", "5-HT1 receptor", "< 5.00"]
]}

* * *

Target: 5-HT2 receptor (Rattus norvegicus, UniProt P14842)
Construct: The precipitate was used as the solution of receptor
Sequence (P14842 whole entry): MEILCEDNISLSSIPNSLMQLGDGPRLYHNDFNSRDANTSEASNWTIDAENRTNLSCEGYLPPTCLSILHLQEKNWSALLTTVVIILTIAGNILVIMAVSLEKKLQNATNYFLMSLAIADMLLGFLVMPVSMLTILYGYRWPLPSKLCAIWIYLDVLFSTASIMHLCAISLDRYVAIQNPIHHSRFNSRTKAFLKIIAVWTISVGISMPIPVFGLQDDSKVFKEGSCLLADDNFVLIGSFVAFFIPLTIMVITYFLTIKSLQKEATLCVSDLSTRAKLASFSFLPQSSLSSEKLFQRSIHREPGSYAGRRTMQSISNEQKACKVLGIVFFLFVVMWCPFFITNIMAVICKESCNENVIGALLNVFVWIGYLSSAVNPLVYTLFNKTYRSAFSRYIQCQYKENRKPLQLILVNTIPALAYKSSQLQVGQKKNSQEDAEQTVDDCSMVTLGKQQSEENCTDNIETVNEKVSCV
Assay: Affinity to 5-HT2 receptor

{"columns": ["compound", "IC50"],
 "data": [
  ["C#CCN(C)[C@H](C)Cc1ccccc1 [Selegiline, reference compound]", "> 10 µM"],
  ["CCCNC(CCC)Cc1cccc2[nH]ccc12.Cl (stereo not drawn) [Compound No. 21, Hydrochloride]", "> 10 µM"],
  ["CCCNC(CCC)Cc1c[nH]c2ccccc12.Cl (stereo not drawn) [Compound No. 20, Hydrochloride]", "> 10 µM"]
]}
